Values from PubChem BioAssay AID1159580

# method_summary: chemical genetic growth profiling, strain panel (AID 1159580);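 also: tested at 20 µM; growth read once vehicle control cultures reached saturation at 30 °C; 1 = growth at the plate median or of vehicle wells; lower values mean less growth of the strain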
# condition_label: S. cerevisiae deletion strains, growth OD, locus YCL016C, strain dcc1, stronger effect = lower value
The whole screen tested about 5,500 compounds, of which about 2,000 (36%) were called active. Another 18% or so got no clear call; they are omitted. The list shows a part of the results.
Doc: threshold 1 (exclusive). Items with normalized growth beneath it return Satisfied; others return Not satisfied.

Take a look at these entries with their results.
smi	class_label
O=C(O)c1cc(=O)c(O)c2c(O)c(O)c(O)cc2c1	Satisfied
O=C(O)c1cc(O)c(O)c(O)c1	Not satisfied

Input line: normalized growth under 1? Item: NCc1ccc(S(N)(=O)=O)cc1
Output line: Not satisfied

----------
# method_summary: chemical genetic growth profiling, strain panel (AID 1159580)
# condition_label: S. cerevisiae deletion strains, growth OD, locus YPL204W, strain HRR25, stronger effect = lower value
Among all 5,500 compounds or so, about 2,000 (36%) were called active. Inconclusive results (about 18%) are left out. The list shows a part of the results.
Doc: threshold 0.8 (exclusive). Items with normalized growth beneath it return Yes; others return No.

Take a look at these entries with their results.
compound	class_label
CC12CC[C@@H](O)CC1=CC[C@@H]1C2CCC2(C)C(=O)CC[C@@H]12 (stereo partly specified)	No
CC(C)(O)C#Cc1ccc(/C=N\Nc2ccccc2)cc1	Yes
CC(C)(O)C#Cc1ccc(/C=N\Nc2c(Cl)cc(Cl)cc2Cl)cc1	No
O=C(CCSc1cccs1)Nc1cccc(C(F)(F)F)c1	No
CCCCCc1ccc(S(=O)(=O)Nc2ccc3c(c2)C(=O)OC3)cc1	No

Input line: normalized growth under 0.8? Item: Cc1cc(C(=O)O/N=C(/N)c2ccc(C(C)(C)C)cc2)no1
Output line: No

Input line: Repeat with COCCOc1ccccc1NC(=S)SCCSC(=S)Nc1ccccc1OCCOC
Output line: No

Input line: Repeat with OC(c1ccc(C(F)(F)F)cc1)c1cccc(C(F)(F)F)c1 (stereo unspecified)
Output line: No

Input line: Repeat with Clc1ccc(-c2noc(CSC3=NCCN3)n2)cc1
Output line: No

Input line: Repeat with N/C(=N/OC(=O)c1ccc(Cl)cc1)c1ccc(F)cc1F
Output line: Yes

----------
# method_summary: chemical genetic growth profiling, strain panel (AID 1159580)
# condition_label: S. cerevisiae deletion strains, growth OD, locus YKL190W, strain CNB1, stronger effect = lower value
Hit rate of the full screen: of about 5,500 compounds, about 2,000 (36%) were called active. Another 18% or so got no clear call; they are omitted. The list shows a part of the results.
experimental_endpoint: normalized growth

compound	normalized growth
Nc1nc2c(c(=O)[nH]1)N(C=O)C(CNc1ccc(C(=O)N[C@@H](CCC(=O)O)C(=O)O)cc1)CN2 (stereo partly drawn)	1 (inactive)
C[C@@H]1C[C@@H]([C@H](O)CC2CC(=O)NC(=O)C2)C(=O)[C@@H](C)C1	0.0498 (active)

# input for lookup
Input line: Query (compound): CC(=O)O[C@H]1C[C@@H](OC(C)=O)C(C)(C)C2C[C@@H](OC(C)=O)[C@]3(C)C(CC[C@@]4(C)[C@H](c5ccoc5)C(=O)[C@H]5O[C@]543)[C@]21C (stereo partly drawn) ; field requested: normalized growth
Output line: 1.01 (inactive)

----------
In this section we review reported normalized growth values for a set of molecules.
# method_summary: chemical genetic growth profiling, strain panel (AID 1159580)
# condition_label: S. cerevisiae deletion strains, growth OD, locus YML016C, strain PPZ1, stronger effect = lower value
Among all 5,500 compounds or so, about 2,000 (36%) were called active. Another 18% or so got no clear call; they are omitted. The list shows a part of the results.
Respond using a number only.

Look over these answered cases.
molecule	normalized growth
C=CC1=C(C)/C(=C/c2[nH]c(Cc3[nH]c(/C=C4\NC(=O)C(C)=C4C=C)c(C)c3CCC(=O)O)c(CCC(=O)O)c2C)NC1=O	1
O=C(O)CCCCCCCCCCCCC1C=CCC1 (centres undefined)	1.03
O=C(O)CCCCC1SCC2NC(=O)NC21 (centres undefined)	1.01

Input line: Query (molecule): CC(=O)N[C@@H]1[C@@H](C(O)[C@H](O)CO)O[C@](O)(C(=O)O)C[C@@H]1O (some centres undefined) ; field requested: normalized growth
Output line: 1.01

----------
# method_summary: chemical genetic growth profiling, strain panel (AID 1159580);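 also: tested at 20 µM; growth read once vehicle control cultures reached saturation at 30 °C; 1 = growth at the plate median or of vehicle wells; lower values mean less growth of the strain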
# condition_label: S. cerevisiae deletion strains, growth OD, locus YJL095W, strain BCK1 (second series), stronger effect = lower value
Hit rate of the full screen: of about 5,500 compounds, about 2,000 (36%) were called active. Another 18% or so got no clear call; they are omitted. Some of the results follow.
experimental_endpoint: normalized growth

molecule	normalized growth
CC(=O)O[C@H]1CC[C@@]2(C)C(=CCC3C2CC[C@@]2(C)C3CC[C@@H]2C(C)CCCC(C)C)C1 (stereo partly specified)	1.01 (inactive)

Input line: Query (molecule): CC1=CC(=O)CC(C)(C)C1(O)/C=C/C(C)=C\C(=O)O (stereo unspecified) ; field requested: normalized growth
Output line: 1.02 (inactive)

Input line: Repeat with CC1(C)CC2C1CCC1(C)OC1CCC2(C)O (stereo unspecified)
Output line: 1.03 (inactive)

Input line: Repeat with CC1=C(/C=C/C(C)=C/C=C/C(C)=C/C(=O)O)C(C)(C)CCC1
Output line: 0.987 (inactive)

Input line: Repeat with CCCN(CCC)C(=O)C(CCC(=O)O)NC(=O)c1ccccc1 (stereo unspecified)
Output line: 0.968 (inactive)

Input line: Repeat with COc1ccc(/C=C/c2cc(O)cc(O)c2)cc1
Output line: 1.01 (inactive)

Input line: Repeat with OC1CCCCC1N1CCC(c2ccccc2)CC1 (stereo unspecified)
Output line: 0.993 (inactive)

Input line: Repeat with CCOC(N)=O
Output line: 0.992 (inactive)

Input line: Repeat with CC(=O)O[C@H]1CC[C@@]2(C)C(=CCC3C2CC[C@]2(C)C(=O)CCC32)C1 (stereo partly specified)
Output line: 1.01 (inactive)

Input line: Repeat with CC1=C(/C=C/C(C)=C/C=C/C(C)=C\C(=O)O)C(C)(C)CCC1
Output line: 0.99 (inactive)

Input line: Repeat with CC1(C)O[C@@H]2CC3C4CCC5=CC(=O)C=C[C@]5(C)C4[C@@H](O)C[C@]3(C)[C@]2(C(=O)CO)O1 (stereo partly specified)
Output line: 1.01 (inactive)

----------
# method_summary: chemical genetic growth profiling, strain panel (AID 1159580);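 also: tested at 20 µM; growth read once vehicle control cultures reached saturation at 30 °C; 1 = growth at the plate median or of vehicle wells; lower values mean less growth of the strain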
# condition_label: S. cerevisiae deletion strains, growth OD, locus YOR080W, strain dia2, stronger effect = lower value
Among all 5,500 compounds or so, about 2,000 (36%) were called active. Roughly 18% stayed inconclusive and do not appear here. The list shows a part of the results.
Doc: threshold 1 (exclusive). Items with normalized growth beneath it return satisfied; others return not satisfied.

compound	class_label
O=C(O)c1cc(=O)c(O)c2c(O)c(O)c(O)cc2c1	satisfied
NCCCCN=C(N)N	not satisfied
CCn1cc(C(=O)O)c(=O)c2ccc(C)nc21	satisfied
CCOC(=O)c1ccc(N)cc1	not satisfied
C[C@](N)(Cc1ccc(O)c(O)c1)C(=O)O	satisfied
CCOP(=S)(OCC)Oc1ccc2c(C)c(Cl)c(=O)oc2c1	satisfied

Input line: normalized growth under 1? Item: C=CCN1CC[C@]23c4c5ccc(O)c4OC2C(=O)CC[C@@]3(O)[C@H]1C5 (stereo not given in full)
Output line: satisfied

Input line: Repeat with COP(=S)(OC)Oc1ccc(SC)c(C)c1
Output line: not satisfied

Input line: Repeat with CN(Cc1cc(Br)cc(Br)c1N)C1CCCCC1
Output line: not satisfied

----------
# method_summary: chemical genetic growth profiling, strain panel (AID 1159580);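 also: tested at 20 µM; growth read once vehicle control cultures reached saturation at 30 °C; 1 = growth at the plate median or of vehicle wells; lower values mean less growth of the strain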
# condition_label: S. cerevisiae deletion strains, growth OD, locus YCL061C, strain MRC1, stronger effect = lower value
Screen size: about 5,500 compounds; about 2,000 (36%) were called active. Another 18% or so got no clear call; they are omitted. The list shows a part of the results.
In this section we review reported normalized growth values for a set of molecules.
Respond using a number only.

Input line: Query (molecule): CC1=C(/C=C/C(C)=C/C=C/C(C)=C/C=C/C=C(C)/C=C/C=C(C)/C=C/C2=C(C)CCCC2(C)C)C(C)(C)CCC1 ; field requested: normalized growth
Output line: 0.995

Input line: Repeat with COc1ccc(/C=C/C(=O)O)cc1OC
Output line: 0.995

Input line: Repeat with O=C(O)CCS(=O)(=O)/C=C/c1ccccc1
Output line: 1

Input line: Repeat with CSc1nc2ccc(NC(=O)c3c(-c4ccccc4)noc3C)cc2s1
Output line: 0.99

Input line: Repeat with CCC(COC(=O)c1cc(OC)c(OC)c(OC)c1)(c1ccccc1)N(C)C (stereo not drawn)
Output line: 0.987

Input line: Repeat with N[C@@H](CCC(=O)N[C@@H](CCSC(CC(=O)O)C(=O)O)C(=O)NCC(=O)O)C(=O)O (stereo partly drawn)
Output line: 1

Input line: Repeat with COc1ccc(C=CC(=O)c2ccc(O)cc2O)cc1OC
Output line: 0.976

Input line: Repeat with Cc1cc(/C=N/NC(N)=S)c2c(C)ccc(C(C)C)cc1-2
Output line: 1.02

Input line: Repeat with COc1cc(/C=C/C(=O)O)cc(OC)c1OC
Output line: 1

Input line: Repeat with COc1ccc2c(c1O)-c1c(OC)c(OC)cc3c1[C@H](C2)N(C)CC3
Output line: 0.979

Input line: Repeat with Cc1cccc(CN2CCN(C(c3ccccc3)c3ccc(Cl)cc3)CC2)c1 (stereo not drawn)
Output line: 0.902
